Exercise: state measured cell count for each of the compounds provided.
- experiment_summary: cell-permeable autofluorescent compounds in GFP channel, dose response, artefact control, imaging, high-content imaging (AID 2124);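 further: cells exposed to compound for 48 hours before fixing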
- experimental_conditions: cells, GFP-channel autofluorescence, high-content imaging; cell count; at 10 µM
Inconclusive results are not listed.
Please answer in the form of a number followed by its unit of measurement.

Request: Dear colleague, I am looking for the recorded cell count of the following compound: COc1ccc2nc(SCC(C)=O)c(C#N)cc2c1
Result: 2490 cells

Request: Dear colleague, I am looking for the recorded cell count of the following compound: Cn1cc(/C=C2\SC(=S)N(NC(=O)c3ccccc3Cl)C2=O)c2ccccc21
Result: 3740 cells

Request: Dear colleague, I am looking for the recorded cell count of the following compound: O=C1c2cccc3c(N4CCCCC4)ccc(c23)C(=O)N1c1ccccc1O
Result: 3140 cells

Request: Dear colleague, I am looking for the recorded cell count of the following compound: CN1CC=C2C(C#N)=C(N)C(C#N)(C#N)C(c3ccsc3)C2C1 (stereo unspecified)
Result: 2400 cells

Request: Dear colleague, I am looking for the recorded cell count of the following compound: CCN1CCN(C2=CC3=CC(=C(C#N)C#N)CCC3CC2)CC1 (stereo unspecified)
Result: 3180 cells

Request: Dear colleague, I am looking for the recorded cell count of the following compound: Nc1c(C(=O)C2CC2)sc2nc(-c3ccccc3)cc(C(F)(F)F)c12
Result: 3090 cells

Request: Dear colleague, I am looking for the recorded cell count of the following compound: Cc1cnc(NC(=O)CN2CCN(c3ccccn3)CC2)s1
Result: 2360 cells

Request: Dear colleague, I am looking for the recorded cell count of the following compound: Cc1c(C(=O)O)cccc1-c1ccc(/C=C2/NC(=O)N(c3ccccc3)C2=O)o1
Result: 3120 cells

Request: Dear colleague, I am looking for the recorded cell count of the following compound: CN(C)c1ccc(/C=C2\SC(=S)N(Nc3ncc(C(F)(F)F)cc3Cl)C2=O)cc1
Result: 2530 cells

Request: Dear colleague, I am looking for the recorded cell count of the following compound: C=CCN1C(=O)/C(=C\C=C2\N(C)c3ccccc3C2(C)C)SC1=S
Result: 2620 cells

Request: Dear colleague, I am looking for the recorded cell count of the following compound: O=C(Nc1nnc(-c2ccccc2)o1)Nc1ccccc1Cl
Result: 2750 cells

###

- experiment_summary: cell-permeable autofluorescent compounds in GFP channel, dose response, artefact control, imaging, high-content imaging (AID 2124);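 further: cells exposed to compound for 48 hours before fixing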
- experimental_conditions: cells, GFP-channel autofluorescence, high-content imaging; cell count; at 10 µM
Results filed as inconclusive are left out.
outcome_measure: cell count (cells)
Numbers only here, please. The scale is cells.

Request: Dear colleague, I am looking for the recorded cell count of the following molecule: Cc1cccc(-c2ncc(CN3CCCC(CO)(Cc4ccccc4C)C3)cn2)c1 (stereo unspecified)
Result: 3340

Request: Dear colleague, I am looking for the recorded cell count of the following molecule: Cc1c2ccccc2nc2c(F)c(NC(C)C)c(F)c(F)c12
Result: 2550

Request: Dear colleague, I am looking for the recorded cell count of the following molecule: Cc1ccc(-n2c(O)c(/C=N/NC(=O)C3COc4ccccc4O3)c3ccccc3c2=O)cc1 (stereo unspecified)
Result: 2870

Request: Dear colleague, I am looking for the recorded cell count of the following molecule: CCOc1ccc2[nH]c(=O)c(CN(CCc3ccccc3)C(=O)N3CCOCC3)cc2c1
Result: 3100

Request: Dear colleague, I am looking for the recorded cell count of the following molecule: Cc1ccc(-c2ccc(/C=C(\C#N)C(=O)Nc3cc(C)nn3-c3ccccc3)o2)cc1
Result: 2460

Request: Dear colleague, I am looking for the recorded cell count of the following molecule: O=C(C1=C(O)C(=O)N(c2nccs2)C1c1ccccc1)c1cc2ccccc2o1 (stereo unspecified)
Result: 2920

Request: Dear colleague, I am looking for the recorded cell count of the following molecule: CC(=O)Nc1nc(-c2ccc(Br)s2)cs1
Result: 3320

Request: Dear colleague, I am looking for the recorded cell count of the following molecule: CC(C)NC(=O)NC(=O)COC(=O)c1cccc(S(=O)(=O)N2CCCCC2)c1
Result: 3040

Request: Dear colleague, I am looking for the recorded cell count of the following molecule: CCOc1ccc(CNC(=O)CCn2c(=O)oc3ccccc32)cc1
Result: 3060

Request: Dear colleague, I am looking for the recorded cell count of the following molecule: CCCCNC(=O)C1CC(=O)N(C2CCCCC2)C1 (stereo unspecified)
Result: 3070

Request: Dear colleague, I am looking for the recorded cell count of the following molecule: CCCCC1=CC2=C(c3ccco3)C(=O)C(C)(OC(=O)c3ccc(OC)cc3)C(=O)C2=CN1CC(C)C (stereo unspecified)
Result: 2870
